biological target: Fatty-acid amide hydrolase 1 (Rattus norvegicus, UniProt P97612); assay: Inhibition of rat recombinant His/GST-tagged FAAH expressed in Escherichia coli cells using AAMCA as substrate incubated for 15 mins followed by substrate addition and measured after every 20 mins for 4 hrs by fluorescence based assay
Sequence (P97612 whole entry): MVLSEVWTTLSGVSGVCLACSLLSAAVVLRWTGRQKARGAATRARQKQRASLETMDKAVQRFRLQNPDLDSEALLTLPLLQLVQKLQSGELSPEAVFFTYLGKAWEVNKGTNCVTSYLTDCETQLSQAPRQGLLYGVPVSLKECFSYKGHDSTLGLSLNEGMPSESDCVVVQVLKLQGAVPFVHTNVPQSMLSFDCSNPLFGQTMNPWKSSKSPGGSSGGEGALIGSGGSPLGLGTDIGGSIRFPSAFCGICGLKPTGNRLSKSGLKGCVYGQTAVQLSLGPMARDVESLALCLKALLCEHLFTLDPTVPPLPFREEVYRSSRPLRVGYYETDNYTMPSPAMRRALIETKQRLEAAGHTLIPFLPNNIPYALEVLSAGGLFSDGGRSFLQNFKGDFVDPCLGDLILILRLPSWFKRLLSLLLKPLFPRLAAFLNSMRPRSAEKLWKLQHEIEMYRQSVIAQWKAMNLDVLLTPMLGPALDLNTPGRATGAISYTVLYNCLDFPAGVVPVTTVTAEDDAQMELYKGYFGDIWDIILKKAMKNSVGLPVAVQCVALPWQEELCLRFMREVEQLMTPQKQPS
pIC50: −log10 of the molar value.
The label depends only on pIC50: MET if it is at least 8, NOT MET if it is smaller.

CC1CN(c2ccccc2)CCN1C(=O)Oc1cccc(N2CCS(=O)(=O)CC2)c1 (configuration not stated)    MET
COc1ccc(N2CCN(C(=O)Oc3cccc(N4CCOCC4)c3)[C@H](C)C2)cc1    MET
O=C(Oc1cccc(N2CCS(=O)(=O)CC2)c1)N1CCN(c2ccccn2)CC1    NOT MET
O=C(Oc1cccc(N2CCS(=O)(=O)CC2)c1)N1CCN(Cc2cccc(Oc3ccccc3)c2)CC1    MET
O=C(Oc1cccc(N2CCS(=O)(=O)CC2)c1)N1CCC(c2ccncc2)CC1    NOT MET
O=C(Oc1cccc(N2CCS(=O)(=O)CC2)c1)N1CCC(c2ccc(F)cc2)CC1    MET

Data request: Hi, just wondering whether O=C(Oc1cccc(N2CCS(=O)(=O)CC2)c1)N1CCC(O)(c2ccccc2)CC1 shows pIC50 of 8 or higher.
Data returned: NOT MET

Data request: Hi, just wondering whether C[C@@H]1CN(c2ccccc2)CCN1C(=O)Oc1cccc(N2CCS(=O)(=O)CC2)c1 shows pIC50 of 8 or higher.
Data returned: MET

Data request: Hi, just wondering whether O=C(Oc1cccc(N2CCS(=O)(=O)CC2)c1)N1CCC(c2ccc(OCCF)cc2)CC1 shows pIC50 of 8 or higher.
Data returned: MET

Data request: Hi, just wondering whether O=C(Oc1cccc(N2CCS(=O)(=O)CC2)c1)N1CCC(c2ccc(N3CCC3)cc2)CC1 shows pIC50 of 8 or higher.
Data returned: MET

---

Molecular target: Fatty-acid amide hydrolase 1 (Homo sapiens)
Sequence (O00519 whole entry): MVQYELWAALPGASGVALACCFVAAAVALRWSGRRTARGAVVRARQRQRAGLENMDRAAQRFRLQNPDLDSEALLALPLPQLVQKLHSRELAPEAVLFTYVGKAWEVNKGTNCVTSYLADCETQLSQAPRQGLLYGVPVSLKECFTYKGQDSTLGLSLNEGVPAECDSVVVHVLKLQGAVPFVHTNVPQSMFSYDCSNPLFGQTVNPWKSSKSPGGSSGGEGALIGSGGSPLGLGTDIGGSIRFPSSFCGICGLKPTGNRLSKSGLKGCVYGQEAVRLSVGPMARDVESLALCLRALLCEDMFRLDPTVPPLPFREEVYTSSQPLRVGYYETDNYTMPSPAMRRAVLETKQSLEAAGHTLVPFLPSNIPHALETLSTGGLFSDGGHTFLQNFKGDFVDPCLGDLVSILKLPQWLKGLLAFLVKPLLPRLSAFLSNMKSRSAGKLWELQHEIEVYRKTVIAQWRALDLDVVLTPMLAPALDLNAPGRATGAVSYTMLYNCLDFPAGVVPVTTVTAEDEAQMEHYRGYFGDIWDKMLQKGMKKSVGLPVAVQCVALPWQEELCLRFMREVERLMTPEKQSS
Experiment: Inhibition of human recombinant MBP-tagged FAAH expressed in Escherichia coli cells using AAMCA as substrate incubated for 15 mins followed by substrate addition and measured after every 20 mins for 4 hrs by fluorescence based assay
Each entry below carries its reported pIC50.
Kindly note that pIC50 refers to -log10 of the concentration in mol/L and answer with the value alone.

O=C(Oc1cccc(N2CCS(=O)(=O)CC2)c1)N1CCC(c2ccc(OC(F)(F)F)cc2)CC1    8.43
O=C(Oc1cccc(N2CCS(=O)(=O)CC2)c1)N1CCC(c2ccccc2)CC1    8.10
O=C(Oc1cccc(N2CCS(=O)(=O)CC2)c1)N1CCN(Cc2cccc(Oc3ccccc3)c2)CC1    8.64

Data request: Recorded pIC50 for O=C(Oc1cccc(N2CCS(=O)(=O)CC2)c1)N1C[C@H]2C[C@@H]1CN2c1ccc(F)cc1 , please?
Data returned: 7.69

Data request: Recorded pIC50 for COc1ccc(C2CCN(C(=O)Oc3cccc(N4CCS(=O)(=O)CC4)c3)CC2)cc1 , please?
Data returned: 8.20

Data request: Recorded pIC50 for O=C(Oc1cccc(N2CCS(=O)(=O)CC2)c1)N1CCN(c2ccc(F)cc2)CC1 , please?
Data returned: 7.69

Values from ChEMBL document CHEMBL4359929
